B1: PhoQ; a variant is named by its letters at X, in order, P23837 (parent)
chain: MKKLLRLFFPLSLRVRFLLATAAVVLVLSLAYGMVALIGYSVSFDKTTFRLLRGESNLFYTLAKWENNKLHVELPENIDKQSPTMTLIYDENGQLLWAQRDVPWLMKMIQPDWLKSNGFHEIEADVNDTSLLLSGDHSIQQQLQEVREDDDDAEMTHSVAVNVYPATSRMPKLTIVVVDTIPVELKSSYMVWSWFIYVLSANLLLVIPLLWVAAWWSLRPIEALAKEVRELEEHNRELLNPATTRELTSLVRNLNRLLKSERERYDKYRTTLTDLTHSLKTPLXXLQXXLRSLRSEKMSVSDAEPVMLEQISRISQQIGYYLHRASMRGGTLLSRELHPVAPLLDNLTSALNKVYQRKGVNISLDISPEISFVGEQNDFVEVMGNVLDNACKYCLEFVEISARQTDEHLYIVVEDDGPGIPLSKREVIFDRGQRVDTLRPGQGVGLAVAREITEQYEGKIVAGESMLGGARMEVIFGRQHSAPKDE

Variants of: B1
Experiment: enrichment ratio after two sorts for PhoP signalling (ratio (wild type AVST 3.29)); higher = more functional
Conditions: with PhoP (E. coli)
In all, about 140,000 sequences were measured (“enrichment ratio after two sorts for PhoP signalling”: median about 0, highest 2% from about 11 on). The sample as a whole holds a higher share of the highest values than the screen did.
value kind: enrichment ratio

Enquiry: What does the record list as enrichment ratio for `MVAG` ?
Return: 12.7

Enquiry: What does the record list as enrichment ratio for `KEWT` ?
Return: ≤ 0.25

Enquiry: What does the record list as enrichment ratio for `DMAN` ?
Return: ≤ 0.25

Enquiry: What does the record list as enrichment ratio for `KMNM` ?
Return: ≤ 0.25

Enquiry: What does the record list as enrichment ratio for `NALQ` ?
Return: ≤ 0.25

Enquiry: What does the record list as enrichment ratio for `TMNG` ?
Return: 10.4

Enquiry: What does the record list as enrichment ratio for `MAFL` ?
Return: 12.9

Enquiry: What does the record list as enrichment ratio for `QGFE` ?
Return: ≤ 0.25

Enquiry: What does the record list as enrichment ratio for `FKHR` ?
Return: ≤ 0.25

Enquiry: What does the record list as enrichment ratio for `NNNF` ?
Return: ≤ 0.25

Enquiry: What does the record list as enrichment ratio for `YTFN` ?
Return: ≤ 0.25

Enquiry: What does the record list as enrichment ratio for `VNNL` ?
Return: ≤ 0.25

Enquiry: What does the record list as enrichment ratio for `KMAN` ?
Return: ≤ 0.25

Enquiry: What does the record list as enrichment ratio for `KALQ` ?
Return: ≤ 0.25

Enquiry: What does the record list as enrichment ratio for `HFML` ?
Return: ≤ 0.25

Enquiry: What does the record list as enrichment ratio for `VTWY` ?
Return: ≤ 0.25

Enquiry: What does the record list as enrichment ratio for `NGML` ?
Return: ≤ 0.25

Enquiry: What does the record list as enrichment ratio for `ITWT` ?
Return: ≤ 0.25

Enquiry: What does the record list as enrichment ratio for `HKIL` ?
Return: ≤ 0.25

Enquiry: What does the record list as enrichment ratio for `HRYS` ?
Return: ≤ 0.25

Enquiry: What does the record list as enrichment ratio for `NLFK` ?
Return: ≤ 0.25

Enquiry: What does the record list as enrichment ratio for `KALL` ?
Return: ≤ 0.25

Enquiry: What does the record list as enrichment ratio for `YAYW` ?
Return: ≤ 0.25

Enquiry: What does the record list as enrichment ratio for `AWAD` ?
Return: ≤ 0.25

Enquiry: What does the record list as enrichment ratio for `QGWT` ?
Return: 36

Enquiry: What does the record list as enrichment ratio for `YACN` ?
Return: ≤ 0.25

Enquiry: What does the record list as enrichment ratio for `FQWT` ?
Return: ≤ 0.25

Enquiry: What does the record list as enrichment ratio for `STYT` ?
Return: 0.437

Enquiry: What does the record list as enrichment ratio for `YELP` ?
Return: ≤ 0.25

Enquiry: What does the record list as enrichment ratio for `MTFN` ?
Return: 16.9

Enquiry: What does the record list as enrichment ratio for `MSAT` ?
Return: 7.26

Enquiry: What does the record list as enrichment ratio for `IAYV` ?
Return: ≤ 0.25

Enquiry: What does the record list as enrichment ratio for `FELQ` ?
Return: 8.46

Enquiry: What does the record list as enrichment ratio for `LTYT` ?
Return: ≤ 0.25

Enquiry: What does the record list as enrichment ratio for `RGHS` ?
Return: ≤ 0.25

Enquiry: What does the record list as enrichment ratio for `SEPT` ?
Return: ≤ 0.25

Enquiry: What does the record list as enrichment ratio for `MGCS` ?
Return: 6.13

Enquiry: What does the record list as enrichment ratio for `NMNN` ?
Return: ≤ 0.25

Enquiry: What does the record list as enrichment ratio for `MQWT` ?
Return: 21.2

Enquiry: What does the record list as enrichment ratio for `MSQM` ?
Return: ≤ 0.25

Enquiry: What does the record list as enrichment ratio for `MSFD` ?
Return: ≤ 0.25

Enquiry: What does the record list as enrichment ratio for `QFDR` ?
Return: ≤ 0.25

Enquiry: What does the record list as enrichment ratio for `LIDA` ?
Return: ≤ 0.25

Enquiry: What does the record list as enrichment ratio for `ANVH` ?
Return: ≤ 0.25

Enquiry: What does the record list as enrichment ratio for `WIAS` ?
Return: ≤ 0.25

Enquiry: What does the record list as enrichment ratio for `NEWT` ?
Return: 32

Enquiry: What does the record list as enrichment ratio for `MVML` ?
Return: 11.9

Enquiry: What does the record list as enrichment ratio for `LKWY` ?
Return: ≤ 0.25

Enquiry: What does the record list as enrichment ratio for `KAFL` ?
Return: ≤ 0.25

Enquiry: What does the record list as enrichment ratio for `QEYT` ?
Return: 20.9

Enquiry: What does the record list as enrichment ratio for `QDPH` ?
Return: ≤ 0.25
